Target: human GLP1R (Homo sapiens (Human))
Test: cAMP responsive luciferase reporter assay, HEK293/CRE-Luc/hGLP1R cells
Format: cell-based
Conditions: relative to P8 of the same experiment
Where a SMILES comes first, the peptide text is derived from it. [ ]: non-standard residue; d: D form. Bip(2'-Et,4'-O(CH2)4NH2) = CCc1cc(OCCCCN)ccc1-c1ccc(C[C@H](N)C(=O)O)cc1; Nva(5-(3,5-Me2Ph)) = Cc1cc(C)cc(CCC[C@H](N)C(=O)O)c1; Ala(1H-tetrazol-5-yl) = N[C@@H](Cc1nnn[nH]1)C(=O)O; αMePhe(2-F) = C[C@](N)(Cc1ccccc1F)C(=O)O
endpoint name: HEK293/CRE-LUC/hGLP1R Relative Signal:Noise (% P8) (%)

1. CCc1cc(OCCCCN)ccc1-c1ccc(C[C@H](NC(=O)[C@H](CC(=O)O)NC(=O)[C@H](CO)NC(=O)[C@@H](NC(=O)[C@](C)(Cc2ccccc2F)NC(=O)[C@@H](NC(=O)CNC(=O)[C@H](Cc2nn[nH]n2)NC(=O)[C@H](C)NC(=O)[C@H](Cc2c[nH]cn2)NC(=O)[C@@H](N)CCC(N)=O)[C@@H](C)O)[C@@H](C)O)C(=O)N[C@@H](CCCc2cc(C)cc(C)c2)C(N)=O)cc1 [P13] (H-QHA[Ala(1H-tetrazol-5-yl)]GT[αMePhe(2-F)]TSD[Bip(2'-Et,4'-O(CH2)4NH2)][Nva(5-(3,5-Me2Ph))]-NH2)	105.6

---

Test: Plasma stability of payloads and linker-payloads, human plasma
Type: in vitro ADME
Details: human, pooled plasma, pH 7.4; payload properties table; species not given; read-out: Plasma stability t½ (converted)
Where a SMILES comes first, the peptide text is derived from it. [ ]: non-standard residue; d: D form. The star is where a group is joined. Bip(2'-Et,4'-O(CH2)4NH2) = CCc1cc(OCCCCN)ccc1-c1ccc(C[C@H](N)C(=O)O)cc1; Malonyl(2,2-Me2,histaminyl) = CC(C)(C(=O)NCCc1cnc[nH]1)C(=O)*; Nva(5-(3,5-Me2Ph)) = Cc1cc(C)cc(CCC[C@H](N)C(=O)O)c1; Ala(1H-tetrazol-5-yl) = N[C@@H](Cc1nnn[nH]1)C(=O)O; αMePhe(2-F) = C[C@](N)(Cc1ccccc1F)C(=O)O; Desaminohistidyl = O=C(CCc1c[nH]cn1)*; X3 = CC(C)(C(=O)*)c1ccn[nH]1; X2 = CC(C)(C(N)=O)C(=O)*; X4 = CC(C)(C(=O)O)C(=O)*
endpoint name: half-life at 2 µM

1) CCc1cc(OCCCCN)ccc1-c1ccc(C[C@H](NC(=O)[C@H](CC(=O)O)NC(=O)[C@H](CO)NC(=O)[C@@H](NC(=O)[C@](C)(Cc2ccccc2F)NC(=O)[C@@H](NC(=O)CNC(=O)[C@H](Cc2nn[nH]n2)NC(=O)C(C)(C)c2ccn[nH]2)[C@@H](C)O)[C@@H](C)O)C(=O)N[C@@H](CCCc2cc(C)cc(C)c2)C(N)=O)cc1 [P6] (X3-[Ala(1H-tetrazol-5-yl)]GT[αMePhe(2-F)]TSD[Bip(2'-Et,4'-O(CH2)4NH2)][Nva(5-(3,5-Me2Ph))]-NH2)	> 57.8 h
2) CCc1cc(OCCCCN)ccc1-c1ccc(C[C@H](NC(=O)[C@H](CC(=O)O)NC(=O)[C@H](CO)NC(=O)[C@@H](NC(=O)[C@](C)(Cc2ccccc2F)NC(=O)[C@@H](NC(=O)CNC(=O)[C@H](Cc2nn[nH]n2)NC(=O)C(C)(C)C(=O)O)[C@@H](C)O)[C@@H](C)O)C(=O)N[C@@H](CCCc2cc(C)cc(C)c2)C(N)=O)cc1 [P3] (X4-[Ala(1H-tetrazol-5-yl)]GT[αMePhe(2-F)]TSD[Bip(2'-Et,4'-O(CH2)4NH2)][Nva(5-(3,5-Me2Ph))]-NH2)	> 57.8 h
3) CCc1cc(OCCCCN)ccc1-c1ccc(C[C@H](NC(=O)[C@H](CC(=O)O)NC(=O)[C@H](CO)NC(=O)[C@@H](NC(=O)[C@](C)(Cc2ccccc2F)NC(=O)[C@@H](NC(=O)CNC(=O)[C@@H](N)Cc2nn[nH]n2)[C@@H](C)O)[C@@H](C)O)C(=O)N[C@@H](CCCc2cc(C)cc(C)c2)C(N)=O)cc1 [P2]	10.7 h
4) CCc1cc(OCCCCN)ccc1-c1ccc(C[C@H](NC(=O)[C@H](CC(=O)O)NC(=O)[C@H](CO)NC(=O)[C@@H](NC(=O)[C@](C)(Cc2ccccc2F)NC(=O)[C@@H](NC(=O)CNC(=O)[C@H](Cc2nn[nH]n2)NC(=O)C(C)(C)C(=O)NCCc2cnc[nH]2)[C@@H](C)O)[C@@H](C)O)C(=O)N[C@@H](CCCc2cc(C)cc(C)c2)C(N)=O)cc1 [P9] ({Malonyl(2,2-Me2,histaminyl)}-[Ala(1H-tetrazol-5-yl)]GT[αMePhe(2-F)]TSD[Bip(2'-Et,4'-O(CH2)4NH2)][Nva(5-(3,5-Me2Ph))]-NH2)	> 57.8 h
5) CCc1cc(OCCCCN)ccc1-c1ccc(C[C@H](NC(=O)[C@H](CC(=O)O)NC(=O)[C@H](CO)NC(=O)[C@@H](NC(=O)[C@](C)(Cc2ccccc2F)NC(=O)[C@@H](NC(=O)CNC(=O)[C@H](Cc2nn[nH]n2)NC(=O)C(C)(C)C(N)=O)[C@@H](C)O)[C@@H](C)O)C(=O)N[C@@H](CCCc2cc(C)cc(C)c2)C(N)=O)cc1 [P4] (X2-[Ala(1H-tetrazol-5-yl)]GT[αMePhe(2-F)]TSD[Bip(2'-Et,4'-O(CH2)4NH2)][Nva(5-(3,5-Me2Ph))]-NH2)	> 57.8 h
6) CCc1cc(OCCCCN)ccc1-c1ccc(C[C@H](NC(=O)[C@H](CC(=O)O)NC(=O)[C@H](CO)NC(=O)[C@@H](NC(=O)[C@](C)(Cc2ccccc2F)NC(=O)[C@@H](NC(=O)CNC(=O)[C@H](Cc2nn[nH]n2)NC(=O)CNC(=O)CCc2c[nH]cn2)[C@@H](C)O)[C@@H](C)O)C(=O)N[C@@H](CCCc2cc(C)cc(C)c2)C(N)=O)cc1 [P12] (Desaminohistidyl-G[Ala(1H-tetrazol-5-yl)]GT[αMePhe(2-F)]TSD[Bip(2'-Et,4'-O(CH2)4NH2)][Nva(5-(3,5-Me2Ph))]-NH2)	> 57.8 h
7) CCc1cc(OCCCCN)ccc1-c1ccc(C[C@H](NC(=O)[C@H](CC(=O)O)NC(=O)[C@H](CO)NC(=O)[C@@H](NC(=O)[C@](C)(Cc2ccccc2F)NC(=O)[C@@H](NC(=O)CNC(=O)[C@H](Cc2nn[nH]n2)NC(=O)[C@H](C)NC(=O)[C@@H](N)Cc2cnc[nH]2)[C@@H](C)O)[C@@H](C)O)C(=O)N[C@@H](CCCc2cc(C)cc(C)c2)C(N)=O)cc1 [P10] (H-HA[Ala(1H-tetrazol-5-yl)]GT[αMePhe(2-F)]TSD[Bip(2'-Et,4'-O(CH2)4NH2)][Nva(5-(3,5-Me2Ph))]-NH2)	1.8 h
8) CCc1cc(OCCCCN)ccc1-c1ccc(C[C@H](NC(=O)[C@H](CC(=O)O)NC(=O)[C@H](CO)NC(=O)[C@@H](NC(=O)[C@](C)(Cc2ccccc2F)NC(=O)[C@@H](NC(=O)CNC(=O)[C@H](Cc2nn[nH]n2)NC(=O)[C@H](C)NC(=O)[C@H](Cc2c[nH]cn2)NC(=O)[C@@H](N)CCC(N)=O)[C@@H](C)O)[C@@H](C)O)C(=O)N[C@@H](CCCc2cc(C)cc(C)c2)C(N)=O)cc1 [P13] (H-QHA[Ala(1H-tetrazol-5-yl)]GT[αMePhe(2-F)]TSD[Bip(2'-Et,4'-O(CH2)4NH2)][Nva(5-(3,5-Me2Ph))]-NH2)	16.9 h
9) CCc1cc(OCCCCN)ccc1-c1ccc(C[C@H](NC(=O)[C@H](CC(=O)O)NC(=O)[C@H](CO)NC(=O)[C@@H](NC(=O)[C@](C)(Cc2ccccc2F)NC(=O)[C@@H](NC(=O)CNC(=O)[C@H](CCC(N)=O)NC(=O)C(C)(C)C(=O)NCCc2cnc[nH]2)[C@@H](C)O)[C@@H](C)O)C(=O)N[C@@H](CCCc2cc(C)cc(C)c2)C(N)=O)cc1	> 57.8 h

---

Molecular target: human GLP1R (Homo sapiens (Human), UniProt P43220)
Sequence (P43220 24-463): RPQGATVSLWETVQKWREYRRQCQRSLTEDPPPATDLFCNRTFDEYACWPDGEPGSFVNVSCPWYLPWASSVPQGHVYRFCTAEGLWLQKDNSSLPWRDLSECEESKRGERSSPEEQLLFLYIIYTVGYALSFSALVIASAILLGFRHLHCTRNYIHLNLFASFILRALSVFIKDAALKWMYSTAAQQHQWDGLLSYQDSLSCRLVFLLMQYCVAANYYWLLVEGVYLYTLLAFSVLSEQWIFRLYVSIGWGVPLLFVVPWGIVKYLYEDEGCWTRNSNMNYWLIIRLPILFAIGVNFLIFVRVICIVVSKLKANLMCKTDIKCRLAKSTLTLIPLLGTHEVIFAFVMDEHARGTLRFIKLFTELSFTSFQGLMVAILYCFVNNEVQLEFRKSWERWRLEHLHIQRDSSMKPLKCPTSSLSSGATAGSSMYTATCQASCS
Experiment: cAMP responsive luciferase reporter assay, HEK293/CRE-Luc/hGLP1R cells
Type: cell-based
Conditions: relative to P8 of the same experiment
Description: To test the activity of GLP1R agonist payloads, GLP1R agonist linker-payloads (LPs), and anti-GLP1R antibody tethered drug conjugates (ATDCs) of the disclosure, a cell-based cAMP responsive luciferase reporter assay was developed. To generate the assay cell line, the firefly luciferase gene was placed under the control of a cAMP response element (CRE) located upstream of a minimal promoter and transfected into HEK293 cells and referred to herein as HEK293/CRE-Luc cells. […]
Where a SMILES comes first, the peptide text is derived from it. [ ]: non-standard residue; d: D form. The star is where a group is joined. Bip(2'-Et,4'-O(CH2)4NH2) = CCc1cc(OCCCCN)ccc1-c1ccc(C[C@H](N)C(=O)O)cc1; Malonyl(2,2-Me2,histaminyl) = CC(C)(C(=O)NCCc1cnc[nH]1)C(=O)*; Nva(5-(3,5-Me2Ph)) = Cc1cc(C)cc(CCC[C@H](N)C(=O)O)c1; Ala(1H-tetrazol-5-yl) = N[C@@H](Cc1nnn[nH]1)C(=O)O; αMePhe(2-F) = C[C@](N)(Cc1ccccc1F)C(=O)O; X3 = CC(C)(C(=O)*)c1ccn[nH]1; X1 = O=C(CCCCCc1cnc[nH]1)*; X4 = CC(C)(C(=O)O)C(=O)*; NHPh = c1ccc(N*)cc1
// values below are reported HEK293/CRE-LUC/hGLP1R Relative Potency (% P8 EC50)
endpoint name: HEK293/CRE-LUC/hGLP1R Relative Potency (% P8 EC50) (%)

1) CCc1cc(OCCCCN)ccc1-c1ccc(C[C@H](NC(=O)[C@H](CC(=O)O)NC(=O)[C@H](CO)NC(=O)[C@@H](NC(=O)[C@](C)(Cc2ccccc2F)NC(=O)[C@@H](NC(=O)CNC(=O)[C@H](Cc2nn[nH]n2)NC(=O)C(C)(C)C(=O)NCCc2cnc[nH]2)[C@@H](C)O)[C@@H](C)O)C(=O)N[C@@H](CCCc2cc(C)cc(C)c2)C(=O)Nc2ccccc2)cc1 [P23] ({Malonyl(2,2-Me2,histaminyl)}-[Ala(1H-tetrazol-5-yl)]GT[αMePhe(2-F)]TSD[Bip(2'-Et,4'-O(CH2)4NH2)][Nva(5-(3,5-Me2Ph))]-NHPh)	103.0
2) CCc1cc(OCCCCN)ccc1-c1ccc(C[C@H](NC(=O)[C@H](CC(=O)O)NC(=O)[C@H](CO)NC(=O)[C@@H](NC(=O)[C@](C)(Cc2ccccc2F)NC(=O)[C@@H](NC(=O)CNC(=O)[C@H](Cc2nn[nH]n2)NC(=O)C(C)(C)c2ccn[nH]2)[C@@H](C)O)[C@@H](C)O)C(=O)N[C@@H](CCCc2cc(C)cc(C)c2)C(N)=O)cc1 [P6] (X3-[Ala(1H-tetrazol-5-yl)]GT[αMePhe(2-F)]TSD[Bip(2'-Et,4'-O(CH2)4NH2)][Nva(5-(3,5-Me2Ph))]-NH2)	0.9
3) CCc1cc(OCCCCN)ccc1-c1ccc(C[C@H](NC(=O)[C@H](CC(=O)O)NC(=O)[C@H](CO)NC(=O)[C@@H](NC(=O)[C@](C)(Cc2ccccc2F)NC(=O)[C@@H](NC(=O)CNC(=O)[C@H](Cc2nn[nH]n2)NC(=O)CCCCCc2cnc[nH]2)[C@@H](C)O)[C@@H](C)O)C(=O)N[C@@H](CCCc2cc(C)cc(C)c2)C(N)=O)cc1 [P11] (X1-[Ala(1H-tetrazol-5-yl)]GT[αMePhe(2-F)]TSD[Bip(2'-Et,4'-O(CH2)4NH2)][Nva(5-(3,5-Me2Ph))]-NH2)	0.8
4) CCc1cc(OCCCCN)ccc1-c1ccc(C[C@H](NC(=O)[C@H](CC(=O)O)NC(=O)[C@H](CO)NC(=O)[C@@H](NC(=O)[C@](C)(Cc2ccccc2F)NC(=O)[C@@H](NC(=O)CNC(=O)[C@H](Cc2nn[nH]n2)NC(=O)C(C)(C)C(=O)O)[C@@H](C)O)[C@@H](C)O)C(=O)N[C@@H](CCCc2cc(C)cc(C)c2)C(N)=O)cc1 [P3] (X4-[Ala(1H-tetrazol-5-yl)]GT[αMePhe(2-F)]TSD[Bip(2'-Et,4'-O(CH2)4NH2)][Nva(5-(3,5-Me2Ph))]-NH2)	0.3

This collection of values is drawn from patent US20250161476A1.
